Molecular target: Steroid 17-alpha-hydroxylase/17,20 lyase (Homo sapiens)
Sequence (P05093 whole entry): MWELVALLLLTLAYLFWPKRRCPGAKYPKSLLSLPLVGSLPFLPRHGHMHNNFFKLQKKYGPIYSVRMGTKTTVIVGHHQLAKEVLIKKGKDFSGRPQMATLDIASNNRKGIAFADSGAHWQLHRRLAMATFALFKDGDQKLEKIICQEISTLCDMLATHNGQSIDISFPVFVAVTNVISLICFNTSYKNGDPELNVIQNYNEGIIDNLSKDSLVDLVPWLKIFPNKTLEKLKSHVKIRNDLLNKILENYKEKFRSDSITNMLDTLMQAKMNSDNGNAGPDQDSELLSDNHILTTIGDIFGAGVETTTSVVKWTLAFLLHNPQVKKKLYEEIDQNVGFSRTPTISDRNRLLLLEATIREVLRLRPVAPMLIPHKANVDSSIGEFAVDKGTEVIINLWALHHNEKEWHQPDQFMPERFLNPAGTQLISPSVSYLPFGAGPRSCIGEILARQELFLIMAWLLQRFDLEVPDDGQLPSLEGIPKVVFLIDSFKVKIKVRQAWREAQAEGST
Experiment: Inhibition of human CYP17 expressed in Escherichia coli using 1,2[3H]-progesterone as substrate in presence of NADPH
pIC50: −log10 of the molar value.
readout-name: pIC50

* COc1ccc2ccc(-c3cccnc3)c(F)c2c1 | 6.97
* COc1ccc2ccc(-c3cncnc3)c(Cl)c2c1 | 6.20
* COc1ccc2ccc(-c3cncc4ccccc34)c(Cl)c2c1 | 6.53
* Oc1ccc2ccc(-c3cncc4ccccc34)c(Cl)c2c1 | 5.99
* Oc1ccc2ccc(-c3cccnc3)c(Cl)c2c1 | 7.19
* COc1cncc(-c2ccc3ccc(O)cc3c2Cl)c1 | 6.73

[a] COc1ccc2ccc(-c3cncc(O)c3)c(Cl)c2c1
[b] Oc1ccc2ccc(-c3cncc(F)c3)c(Cl)c2c1
Could you kindly indicate whether a or b has the higher pIC50 value? Which one? Tell me its label.
a
